- run.description: Caspase-3/7 induction in HepG2 cells by small molecules, qHTS cell viability counter screen (AID 1346981); further: nearly all actives have a fitted effect of over 30% in size
- condition.summary: CellTiter-Fluor fluorescence, 17 h; series mostly up to 92.4 µM
Inconclusive results are not listed. Activity calls are given as the source filed them. The call rests on the fitted dose curve; in most records, active means well fitted cell-killing curve with a large enough effect in the repeat runs; inconclusive means weak or mixed curves, or effect the other way; inactive means flat fitted curve, though single readings scatter.
Lab note: assign the record to one of true (active), false (inactive)

Exercise: Query: recorded result category for CC(C)(C)c1ccccc1 in this test
Solution: false

Exercise: Query: recorded result category for c1ccc2c(c1)-c1cccc3c1c-2cc1ccccc13 in this test
Solution: false

Exercise: Query: recorded result category for Cc1cc(OCCOCC[N+](C)(C)Cc2ccccc2)ccc1C(C)(C)CC(C)(C)C in this test
Solution: true

Exercise: Query: recorded result category for C1COC(NC(C2CC2)C2CC2)=N1 in this test
Solution: false

Exercise: Query: recorded result category for Cc1cc(C(C)(C)C)c(O)c(C(C)(C)C)c1 in this test
Solution: false

Exercise: Query: recorded result category for O in this test
Solution: false

Exercise: Query: recorded result category for CCOc1ccccc1C(N)=O in this test
Solution: false

Exercise: Query: recorded result category for CCOc1ccc2c(c1)C(C)=CC(C)(C)N2 in this test
Solution: false

Exercise: Query: recorded result category for CCCCCCCCCCCC[N+](C)(C)C in this test
Solution: false

Exercise: Query: recorded result category for O=C(O)Cn1cnnn1 in this test
Solution: false

Exercise: Query: recorded result category for NC(N)=Nc1nc(CSCC/C(N)=N/S(N)(=O)=O)cs1 in this test
Solution: false

Exercise: Query: recorded result category for CC[C@]1(O)C[C@@H]2CN(CCc3c([nH]c4ccccc34)[C@@](C(=O)OC)(c3cc4c(cc3OC)N(C)[C@H]3[C@@](O)(C(=O)OC)[C@H](OC(C)=O)[C@]5(CC)C=CCN6CC[C@]43[C@@H]65)C2)C1 in this test
Solution: true

Exercise: Query: recorded result category for NC(N)=NC(=O)Cc1c(Cl)cccc1Cl in this test
Solution: false

Exercise: Query: recorded result category for Nc1nc2ccccc2[nH]1 in this test
Solution: false

Exercise: Query: recorded result category for O=C1Nc2ccccc2C1(c1ccc(O)cc1)c1ccc(O)cc1 in this test
Solution: false

Exercise: Query: recorded result category for CCCOC(=O)c1cc(O)c(O)c(O)c1 in this test
Solution: false

Exercise: Query: recorded result category for CC[C@@H](N)CO in this test
Solution: false

Exercise: Query: recorded result category for CC(C)(c1ccccc1)c1ccc(Nc2ccc(C(C)(C)c3ccccc3)cc2)cc1 in this test
Solution: false

Exercise: Query: recorded result category for CCN(CC)C(=S)SSC(=S)N(CC)CC in this test
Solution: false

Exercise: Query: recorded result category for Cc1occc(=O)c1OC(=O)C(C)C in this test
Solution: false

Exercise: Query: recorded result category for c1cc(C(c2ccc(OCC3CO3)cc2)C(c2ccc(OCC3CO3)cc2)c2ccc(OCC3CO3)cc2)ccc1OCC1CO1 (stereo not drawn) in this test
Solution: false

Exercise: Query: recorded result category for CCCCN(CCO)CCCC in this test
Solution: false

Exercise: Query: recorded result category for C=CC(=O)OCCCCCCOC(=O)C=C in this test
Solution: false

Exercise: Query: recorded result category for Cc1cccc2n[nH]nc12 in this test
Solution: false

Exercise: Query: recorded result category for Cc1ccnc2c1NC(=O)c1cccnc1N2C1CC1 in this test
Solution: false

Exercise: Query: recorded result category for Clc1ccc2c(c1)C(N1CCNCC1)=Nc1ccccc1O2 in this test
Solution: false

Exercise: Query: recorded result category for CC(=O)Nc1ccc(C(=O)CCl)cc1 in this test
Solution: false

Exercise: Query: recorded result category for O=Cc1ccc(Cl)cc1 in this test
Solution: false
